test: cell viability in Huh7 cells, primary screen, cytotoxicity control for HCV replication inhibitor project, CellTiter-Glo luminescence, basal, 48 h (AID 1143); conditions: Huh7 HCV replicon, higher = more signal, called active from +8 up or from −8 down;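 note: Huh7 hepatoma cells carrying a hepatitis C replication reporter with no stimulus; test concentration not given here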
Kindly supply the reported z-score values for the records listed here.
// response body must contain only the number

Ask: Value lookup for z-score; key = O=C1[C@H]2[C@H]3[C@H](O)[C@H](O)CC(=NOC[C@@H](O)COCc4ccco4)[C@@H]3CC[C@H]2C(=O)N1c1ccc(F)cc1F
Result: -1.7

Ask: Value lookup for z-score; key = CC(C)=CCCC(C)=CCON=C1[C@H]2CCn3c(=O)n(Cc4cc5c(cc4Cl)OCO5)c(=O)n3[C@H]2[C@H](O)[C@@H]2O[C@H]12
Result: 0.148

Ask: Value lookup for z-score; key = CC(CCN1CCc2nc(-c3ccccc3)c(-c3ccccc3)cc2C1)=NO[C@@H](C)c1cn([C@H](CO)Cc2ccccc2)nn1
Result: -0.802

Ask: Value lookup for z-score; key = CC(C)(C)N1CC=CC23O[C@@H]4C=CCCOC(=O)C4[C@H]2C(=O)N(CCCCCO)[C@@H]3C1=O (some centres undefined)
Result: -0.128

* * *

experiment: binders of probe aFST on microarray, primary screen, stem cell growth factor project, biochemical, small-molecule microarray, fluorescence 635/667 (AID 1086); conditions: higher = more signal;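 note: score merges 667 nm fluorescence with signal-to-noise of each printed compound spot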
quantity kind: composite z-score
// response body must contain only the number

Ask: Value lookup for composite z-score; key = CC(C)=C1C(=O)C(c2ccccc2)=C2CN3C(=O)N(CCc4ccccc4)C(=O)[C@]3(Cc3ccc(F)cc3)[C@H]21
Result: 0.841

Ask: Value lookup for composite z-score; key = CC(CCN1CCCCc2nc(C)c(C)cc21)=NOC(C)CN1CCCCc2nc(C)c(C)cc21 (centres undefined)
Result: 0.907

Ask: Value lookup for composite z-score; key = CCOC(=O)CCN1C(=O)[C@H]2[C@H]3[C@H](O)[C@H](O)CC(=NNC(=O)OCc4ccc(OC)cc4)[C@@H]3CC[C@H]2C1=O
Result: 0.15

Ask: Value lookup for composite z-score; key = COC(=O)C1=CCC(c2cccc(Cl)c2)O1 (centres undefined)
Result: -0.0195

* * *

molecular target: Torsin-1A-interacting protein 2 (Homo sapiens); assay: LULL1 binders on small-molecule microarray, primary screen, cell lysate, human LULL1 lysate, 635/667 nm fluorescence (AID 1092); conditions: hLULL1 lysate binding, 635 nm fluorescence, higher = more signal;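 note: probe is lysate of COS7 cells overexpressing human LULL1; score merges per-feature 667 nm fluorescence with signal-to-noise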
quantity kind: composite z-score
// response body must contain only the number

Ask: Value lookup for composite z-score; key = CCOC(=O)NN=C1C[C@@H](O)[C@@H](O)[C@@H]2[C@@H]3C(=O)N(CC)C(=O)[C@@H]3CC[C@@H]12
Result: 1.31

Ask: Value lookup for composite z-score; key = CCOc1ccc(N2C(=O)/C(=C/C=C/c3ccccc3OC)S(=O)(=O)C2c2cccc([N+](=O)[O-])c2)cc1 (stereo not drawn)
Result: 0.236

Ask: Value lookup for composite z-score; key = COc1ccc(-c2ccc3c(n2)CCCN3CC(O)CN2CCCc3nc(C)c(C)cc32)cc1 (stereo not drawn)
Result: 1.13

Ask: Value lookup for composite z-score; key = Cc1ccc(S[C@]2(C(=O)O)CC(=O)N(Cc3ccccc3)[C@@H]2c2ccc(CO)cc2I)cc1
Result: 1.28

Ask: Value lookup for composite z-score; key = COc1ccc(O[C@H]2C=C[C@@H](c3ccccc3)O[C@@H]2COC(=O)N2CCCCC2)cc1
Result: -0.616

Ask: Value lookup for composite z-score; key = CO[C@@H]1COC(=O)CCC[C@@H](C)[C@H](OC)COC(=O)[C@H](Cc2ccccc2)NC(=O)CC=C[C@H]1C
Result: -2.01

Ask: Value lookup for composite z-score; key = CCOC(=O)C1=CCC(c2cc3ccccc3[nH]2)NC1 (stereo not drawn)
Result: 2.45

Ask: Value lookup for composite z-score; key = O=C1[C@H]2[C@H]3[C@H](O)[C@H](O)CC(=NOC[C@@H](O)COCc4ccco4)[C@@H]3CC[C@H]2C(=O)N1c1ccc(F)cc1F
Result: -1.34

* * *

test: modulators of HCV replicon luciferase signal, primary screen, HCV replication inhibitor project, Huh7 cells, luciferase reporter (AID 1109); settings: 48 h, higher = more signal;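 note: huh7 hepatoma cells harbouring a luciferase neomycin HCV replicon reporter; luciferase luminescence as measure of HCV replicon replication; test concentration not given here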
Answer Not met if z-score is under -0.6, and Met if it is -0.6 or more.

Ask: Is reported z-score greater than or equal to -0.6 here: CCOC(=O)CCN1C(=O)[C@H]2[C@H]3[C@H](O)C=CC(=O)[C@@H]3CC[C@H]2C1=O
Result: Met

Ask: Is reported z-score greater than or equal to -0.6 here: CC(C)(C)N1C(=O)[C@H]2[C@H]3[C@H](O)[C@H](O)CC(=NO[C@@H]4O[C@H](CO)[C@@H](O)[C@H](O)[C@H]4O)[C@@H]3CC[C@H]2C1=O
Result: Met

Ask: Is reported z-score greater than or equal to -0.6 here: CCOC(=O)CCN1C(=O)[C@H]2[C@H]3[C@H](O)[C@H](O)CC(=NOC[C@@H](O)COCc4ccco4)[C@@H]3CC[C@H]2C1=O
Result: Met

Ask: Is reported z-score greater than or equal to -0.6 here: CO[C@H]1COC(=O)CC=C[C@H](C)[C@@H](NS(=O)(=O)c2ccc(C)cc2)COC(=O)CC=C[C@@H]1C
Result: Not met

Ask: Is reported z-score greater than or equal to -0.6 here: CN1C(=O)C2C=CC(C(O)c3ccc(I)cc3)N(NC(=O)OC(C)(C)C)C2C1=O (centres undefined)
Result: Met

Ask: Is reported z-score greater than or equal to -0.6 here: CC(C)NC(=O)[C@@H]1c2ccccc2C(=O)N(CC23CC4CC(CC(C4)C2)C3)[C@H]1c1ccc(CO)cc1
Result: Not met

Ask: Is reported z-score greater than or equal to -0.6 here: O=C1c2ccccc2[C@@]2(Cc3ccccc3N(C3CC3)C2=O)[C@H](c2ccc(CO)cc2)N1Cc1ccccc1C(F)(F)F
Result: Not met

Ask: Is reported z-score greater than or equal to -0.6 here: O=C1CCCC2OC12C(O)CCc1ccccc1 (centres undefined)
Result: Not met

Ask: Is reported z-score greater than or equal to -0.6 here: O=C1[C@H]2[C@H]3[C@H](O)[C@H](O)CC(=NOCc4ccccc4)[C@H]3CC[C@H]2C(=O)N1c1ccc(F)cc1F
Result: Met

Ask: Is reported z-score greater than or equal to -0.6 here: O=C1O[C@@H](c2ccccc2)[C@@H](c2ccccc2)N2[C@@H](c3ccc(OCCO)cc3)[C@]3(C(=O)Nc4ccccc43)[C@@H](C(=O)N3CCN(c4ncccn4)CC3)[C@H]12
Result: Not met

Ask: Is reported z-score greater than or equal to -0.6 here: C#CCCCON=C1C[C@@H](O)[C@@H](O)[C@@H]2[C@@H]3C(=O)N([C@@H](C)c4ccccc4)C(=O)[C@@H]3CC[C@H]12
Result: Not met

Ask: Is reported z-score greater than or equal to -0.6 here: COCCOC(=O)N1C(=O)[C@@]2(c3cc(C#CCNC(N)=O)ccc31)[C@H](c1ccccc1OCCO)N1[C@H](c3ccccc3)[C@H](c3ccccc3)OC(=O)[C@H]1[C@@H]2C(=O)N1CCN(c2ncccn2)CC1
Result: Not met

Ask: Is reported z-score greater than or equal to -0.6 here: O=C1[C@H]2[C@H]3[C@H](O)[C@H](O)CC(=NOCc4ccccc4)[C@H]3CC[C@H]2C(=O)N1C[C@@H]1CCCO1
Result: Met

Ask: Is reported z-score greater than or equal to -0.6 here: O=C1C[C@]2(c3ccc([N+](=O)[O-])cc3)C(=O)N(CCN3CCOCC3)c3cc(CO)ccc3[C@H]2N1CC12CC3CC(CC(C3)C1)C2
Result: Met

* * *

test: CREB reporter modulators under forskolin, primary screen, cell-based, PC12, CRE-LacZ reporter, forskolin-stimulated (AID 1146); settings: luminescence, 4.5 h, higher = more signal, called active from +8 up or from −8 down;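 note: PC12 cells with 6xCRE LacZ reporter stimulated by forskolin 10 µM; beta-galactosidase reporter signal reflecting CREB driven transcription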
Kindly supply the reported z-score values for the records listed here.
// response body must contain only the number

Ask: Value lookup for z-score; key = COc1ccc(O[C@H]2C=C[C@@H](c3ccccc3)O[C@@H]2COC(=O)CCC(C)=NOC[C@@H](C)[C@H](OCc2ccccc2)C(C)C)cc1
Result: 0.468

Ask: Value lookup for z-score; key = COC(=O)[C@@H]1N=C(c2ccc(OCCCO)cc2)O[C@@H]1c1ccccc1N=[N+]=[N-]
Result: -0.826

Ask: Value lookup for z-score; key = O=C1C[C@@H](O)[C@@H](O)[C@@H]2[C@@H]3C(=O)N(c4cccc(Oc5ccccc5)c4)C(=O)[C@@H]3CC[C@@H]12
Result: 0.061

Ask: Value lookup for z-score; key = O=C1C2=CC[C@H]3C(=O)N(Cc4ccc5c(c4)OCO5)C(=O)[C@H]3[C@H]2[C@H](O)[C@@H]2O[C@H]12
Result: -0.454

Ask: Value lookup for z-score; key = CC(CCC(=O)OC[C@H]1O[C@H](C#Cc2ccccc2)C=C[C@@H]1Oc1ccc(C)cc1)=NO[C@@H](C)c1cn([C@H](CO)Cc2ccccc2)nn1
Result: 0.0061

Ask: Value lookup for z-score; key = COC(=O)[C@@H]1CCCN1C(=O)[C@@H](C)CO
Result: -0.397

Ask: Value lookup for z-score; key = CO[C@H]1COC(=O)[C@@H]2CCCN2C(=O)CC=C[C@@H](C)[C@H](OC)COC(=O)CC=C[C@@H]1C
Result: 0.104
